target: UniProt P0A6L2; experiment: DHPS activity (O-ABA assay) with increasing lysine, leaf extracts of transgenic tobacco expressing E. coli DHPS; assay type: biochemical; parameters: pea rbcS-3A chloroplast transit peptide (chloroplastic type only; absent in the cytoplasmic type) (N); expressed in transfected cells; host or cells: transgenic tobacco plants (crude leaf extract; A-11 and A-22 cytoplasmic type, B-7 and B-15 chloroplastic type); conditions: transgenic tobacco plants, crude leaf extract; read-out: I50 for DHPS inhibition by lysine
Sequence (P0A6L2 whole entry): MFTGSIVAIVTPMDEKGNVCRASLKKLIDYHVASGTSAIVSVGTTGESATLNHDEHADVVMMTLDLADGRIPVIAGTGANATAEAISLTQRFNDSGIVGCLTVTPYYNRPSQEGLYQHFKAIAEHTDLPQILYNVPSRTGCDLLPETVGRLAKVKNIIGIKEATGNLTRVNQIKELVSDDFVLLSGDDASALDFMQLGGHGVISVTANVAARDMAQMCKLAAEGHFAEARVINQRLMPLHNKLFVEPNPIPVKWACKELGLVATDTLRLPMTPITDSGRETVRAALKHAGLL
property: IC50 (µM)
Give a bare numeral; the unit µM is implied.

Request: Fill blank: measured IC50 of the compound NCCCC[C@H](N)C(=O)O is ____.
Result: 1600

====

Molecular target: UniProt Q42948
Sequence (Q42948 34-359): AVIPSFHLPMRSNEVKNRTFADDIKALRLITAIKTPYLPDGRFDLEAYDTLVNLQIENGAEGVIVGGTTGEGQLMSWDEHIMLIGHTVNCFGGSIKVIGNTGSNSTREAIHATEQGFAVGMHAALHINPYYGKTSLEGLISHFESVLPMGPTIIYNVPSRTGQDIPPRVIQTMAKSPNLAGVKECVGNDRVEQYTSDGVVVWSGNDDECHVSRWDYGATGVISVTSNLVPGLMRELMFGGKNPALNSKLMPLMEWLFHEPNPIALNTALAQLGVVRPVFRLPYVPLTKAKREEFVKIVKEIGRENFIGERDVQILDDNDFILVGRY
property: IC50 (µM)
Give a bare numeral; the unit µM is implied.

Request: Fill blank: measured IC50 of the compound NCCCC[C@H](N)C(=O)O [lysine] is ____.
Result: 27

Data credit: patent US5367110A
